assay: Kinetic solubility of the compound; type: physicochemical; settings: read-out: Kinetic_solubility
OBSERVABLE: solubility kinetic (µM)

Example cases with answers are listed next.
>>> assay_result("Cc1nc(NCc2cc3cc(Cl)ccc3[nH]c2=O)ccc1C#N")
0.64
>>> assay_result("COc1cc(NCc2cc3cc(F)ccc3[nH]c2=O)ccc1C#N")
3.32
>>> assay_result("COc1cc(NCc2cc3ccccc3[nH]c2=O)ccc1-n1cnnn1")
0.93
>>> assay_result("N#Cc1ccc(NCc2cc3cc(Cl)ccc3[nH]c2=O)cc1O")
20.9
>>> assay_result("COc1cc(NCc2cc3cc(C)c(C)cc3[nH]c2=O)ccc1-n1cnnn1")
0.04
>>> assay_result("Cc1ccnc(NCc2cc3cc(Cl)ccc3[nH]c2=O)c1")
0.88
>>> assay_result("COc1cc(NCc2cc3cc(Br)ccc3[nH]c2=O)ccc1C#N")
0.18
>>> assay_result("COc1cc(N[C@@H](C)c2cc3cc(Cl)ccc3[nH]c2=O)ncc1C#N")
15.6

I: COc1cc(NCc2cc3cc(Cl)c(OCCN4CCOCC4)cc3[nH]c2=O)ccc1C#N
II: COc1ccc2[nH]c(=O)c(CNc3ccc(C#N)c(OC)c3)cc2c1
Input: Recorded solubility kinetic values differ for I and II ; which one is higher? Which one? Tell me its label.
Output: II
